Source of measurements: patent US20250313560A1

Target: CYP3A4 (Homo sapiens (Human), UniProt P08684)
Sequence (P08684 whole entry): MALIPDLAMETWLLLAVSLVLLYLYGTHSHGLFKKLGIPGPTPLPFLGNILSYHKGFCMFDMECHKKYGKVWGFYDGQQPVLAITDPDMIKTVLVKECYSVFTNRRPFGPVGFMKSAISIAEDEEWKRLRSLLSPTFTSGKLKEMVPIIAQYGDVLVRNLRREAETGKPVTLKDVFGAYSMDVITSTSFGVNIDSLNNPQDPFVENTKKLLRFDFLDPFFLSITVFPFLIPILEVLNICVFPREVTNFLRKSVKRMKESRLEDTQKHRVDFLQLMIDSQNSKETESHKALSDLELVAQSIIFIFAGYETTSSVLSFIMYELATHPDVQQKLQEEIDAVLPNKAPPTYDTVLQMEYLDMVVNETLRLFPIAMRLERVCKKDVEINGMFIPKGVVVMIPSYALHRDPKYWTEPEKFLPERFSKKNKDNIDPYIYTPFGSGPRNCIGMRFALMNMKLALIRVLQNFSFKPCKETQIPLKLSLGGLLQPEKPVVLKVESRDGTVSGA
Test: Mechanism-based inhibition of CYP3A4 assay (MBI 3A4)
Assay type: in vitro ADME
Settings: human liver microsomes, midazolam substrate; hydroxy-midazolam formation after 30 min preincubation relative to 0 min
Listed below: MBI inhibition % ctrl. [%] with MDZ values for each entry.
Please reply with the bare figure in % and do not write the unit itself.

C[C@@H]1C[C@H](O)CN1C1CCN(c2cc(C(=O)N[C@H](C)c3cccc(C(F)(F)F)c3F)cn3ncnc23)CC1: 99
C[C@@H](NC(=O)c1cc([C@H]2CC[C@H](N3CCC(F)C(O)C3)CC2)c2ncnn2c1)c1cccc(C(F)F)c1F (single isomer, unassigned) [Example trans-E61b]: 101

Please turn your attention to the following entry.
Record summary for C[C@@H](NC(=O)c1cc(N2CCC(NC3COCC3O)CC2)c2ncnn2c1)c1cccc(C(F)(F)F)c1F (single isomer, unassigned) [Example trans-E42a] : reported MBI inhibition % ctrl. [%] with MDZ = 101

---

Target: CYP3A4 (Homo sapiens (Human), UniProt P08684)
Test: Mechanism-based inhibition of CYP3A4 assay (MBI 3A4)
Type: in vitro ADME
Conditions: human, human liver microsomes, probe midazolam 15 μM (hydroxy-midazolam formation), midazolam substrate, hydroxy-midazolam formation after 30 min preincubation relative to 0 min, read-out: MBI inhibition % ctrl. [%] with MDZ
quantity kind: inhibition at 30 min (%)
Your answer is read as %, so omit the unit and give the number.

Solved entries:
C[C@@H](NC(=O)c1cc(N2CCC(N3CCC[C@@H]3CO)CC2)c2ncnn2c1)c1cccc(C(F)F)c1F [Example E1]: 98
C[C@@H](NC(=O)c1cc([C@H]2CC[C@H](N3CCC(F)C(O)C3)CC2)c2ncnn2c1)c1cccc(C(F)F)c1F (single isomer, unassigned) [trans-E61a]: 93

Let us move to another entry and its inhibition at 30 min.
Field inhibition at 30 min (entry C[C@@H](NC(=O)c1cc(N2CCC3(CCNC3)CC2)c2ncnn2c1)c1cccc(C(F)(F)F)c1F ) reads 96

---

Tested on: human hepatocytes
Experiment: Metabolic stability in human hepatocytes
Conditions: 1 μM test compound, 50% human serum, percentage of liver blood flow
quantity kind: Hepatic clearance - QH[%] in human hepatocytes (%)
Field: numeric (%). Do not append units.

Some entries whose results are on file:
C[C@@H](NC(=O)c1cc(N2CCC(N3CCC[C@@H]3CO)CC2)c2ncnn2c1)c1cccc(C(F)F)c1F [Example E1]: 17
C[C@@H](NC(=O)c1cc(C2=CCC(N3CCC[C@H](O)C3)CC2)c2nncn2c1)c1cccc(C(F)F)c1F (stereo partly shown) [Example E82]: 5
C[C@@H](NC(=O)c1cc(N2CCC3(CCNC3)CC2)c2ncnn2c1)c1cccc(C(F)(F)F)c1F [Example E36]: 10
C[C@@H](NC(=O)c1cc(N2CCC(N3C[C@@H](O)C4(CC4)C3)CC2)c2ncnn2c1)c1cccc(C(F)(F)F)c1F [Example E30]: 18
C[C@@H](NC(=O)c1cc(N2CCC(N3C[C@H](O)C4(CC4)C3)CC2)c2ncnn2c1)c1cccc(C(F)F)c1F [Example E3]: 24

Form: molecule = C[C@@H](NC(=O)c1cc(N2CCC(NC3CCCC3(C)O)CC2)c2ncnn2c1)c1cccc(C(F)(F)F)c1F (single isomer, unassigned) [Example trans-E53a] ; Hepatic clearance - QH[%] in human hepatocytes = 45

The molecule listed as C[C@@H](NC(=O)c1cc(N2CCC(N3CCC[C@@H](O)C3)CC2)c2ncnn2c1)c1cccc(C(F)F)c1F [Example E22] shows Hepatic clearance - QH[%] in human hepatocytes equal to 19

---

Biological target: SOS1 and KRAS G12C (Homo sapiens (Human), UniProt Q07889)
Test: KRAS::SOS1 AlphaScreen binding assay (KRAS G12C)
Details: average of at least two measurements
Label scheme for IC50: group 1: < 40 nM; group 2: ≥ 40 nM and < 50 nM; group 3: ≥ 50 nM

Field: example entries. Status: answers known.
C[C@@H](NC(=O)c1cc(N2CCC(N3CCC[C@@H]3CO)CC2)c2ncnn2c1)c1cccc(C(F)F)c1F [Example E1]: group 1
C[C@@H](NC(=O)c1cc(N2CCC3(CCCN3C)CC2)n2ncnc2c1)c1cccc(C(F)(F)F)c1F: group 3
C[C@@H](NC(=O)c1cc([C@H]2CC[C@H](N3CCC[C@@H](O)C3)CC2)c2ncnn2c1)c1cccc(C(F)(F)F)c1F: group 1
C[C@@H](NC(=O)c1cc(N2CCC3(CCCN3C)CC2)c2ncnn2c1)c1cccc(C(F)F)c1F: group 2
C[C@@H](NC(=O)c1cc(N2CCC(N3CCC[C@@H](O)C3)CC2)c2ncnn2c1)c1cccc(C(F)F)c1F: group 2
C[C@@H](NC(=O)c1cc([C@H]2CC[C@H](N3CCC(F)C(O)C3)CC2)c2ncnn2c1)c1cccc(C(F)(F)F)c1F (single isomer, unassigned) [Example trans-E70b]: group 1
Cc1nc2c(N3CCC4(CCCN4)CC3)cc(C(=O)N[C@H](C)c3cccc(C(F)(F)F)c3F)cn2n1: group 2
C[C@@H](NC(=O)c1cc(N2CCC(NC3CCCC3(C)O)CC2)c2ncnn2c1)c1cccc(C(F)(F)F)c1F (single isomer, unassigned) [Example trans-E53b]: group 1

Categorize the following entry: C[C@@H](NC(=O)c1cc(N2CCC(N3CC[C@@H](O)C3)CC2)c2ncnn2c1)c1cccc(C(F)(F)F)c1F
group 3

Bin this entry: C[C@@H](NC(=O)c1cc(N2CCC(N3CC[C@H](CO)C3)CC2)c2ncnn2c1)c1cccc(C(F)(F)F)c1F
group 3

Lab note: which band did C[C@@H](NC(=O)c1cc(N2CCC(N3CCC[C@H]3CO)CC2)c2ncnn2c1)c1cccc(C(F)F)c1F land in?
group 1

Consider C[C@@H](NC(=O)c1cc(N2CCC(N3CCC[C@H](O)C3)CC2)c2ncnn2c1)c1cccc(C(F)(F)F)c1F . To which IC50 class does it belong?
group 3

---

Target: SOS1 and KRAS G12D (Homo sapiens (Human))
Sequence (Q07889 564-1049, stated change not applied): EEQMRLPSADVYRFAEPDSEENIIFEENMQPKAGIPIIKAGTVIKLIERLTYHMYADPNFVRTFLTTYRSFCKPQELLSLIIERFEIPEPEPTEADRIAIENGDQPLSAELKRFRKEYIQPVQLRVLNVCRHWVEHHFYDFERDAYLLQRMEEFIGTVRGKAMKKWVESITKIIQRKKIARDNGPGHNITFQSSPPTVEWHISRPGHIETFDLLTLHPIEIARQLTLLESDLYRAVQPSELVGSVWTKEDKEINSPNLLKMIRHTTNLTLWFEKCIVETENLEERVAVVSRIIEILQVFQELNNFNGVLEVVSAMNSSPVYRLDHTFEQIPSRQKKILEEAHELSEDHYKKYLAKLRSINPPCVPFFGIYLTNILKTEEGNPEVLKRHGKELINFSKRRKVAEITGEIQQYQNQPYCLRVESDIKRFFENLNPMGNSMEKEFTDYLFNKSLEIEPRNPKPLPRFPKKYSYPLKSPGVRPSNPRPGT
Assay: KRAS::SOS1 AlphaScreen binding assay (KRAS G12D)
Details: average of at least two measurements
Experimental: Low IC50 values are indicative of high potency of the SOS1 inhibitor compound in this assay setting: […] Compounds are diluted to a final start concentration of 100 μM and are tested in duplicate. Assay-ready plates (ARPs) are generated using an Access Labcyte Workstation with a Labcyte Echo 550 or 555 acoustic dispenser. […] Result calculation: IC50 values are calculated and analyzed using a 4 parametric logistic model. […]
Define the label as class 1 when IC50 is strictly less than 50 nM and as class 0 in all remaining cases.

Use these answered entries as a reference point.
C[C@@H](NC(=O)c1cc(N2CCC(N3CC4CC4(CO)C3)CC2)c2ncnn2c1)c1cccc(C(F)F)c1F (single isomer, unassigned) [Example cis-E21a]: class 0
C[C@@H](O)CNC1CCN(c2cc(C(=O)N[C@H](C)c3cccc(C(F)(F)F)c3F)cn3ncnc23)CC1 [Example E39]: class 0

Confirm or reject: IC50 of C[C@@H](NC(=O)c1cc(N2CCC(N(C)CCO)CC2)c2ncnn2c1)c1cccc(C(F)(F)F)c1F [Example E55] lies strictly below 50 nM
class 0

Does the reported IC50 of the following compound sit strictly below 50 nM? C[C@@H](NC(=O)c1cc(N2CCC(N3CCCC(O)CC3)CC2)c2ncnn2c1)c1cccc(C(F)F)c1F (single isomer, unassigned) [Example E17b]
class 1

Is the reported IC50 for C[C@@H](NC(=O)c1cc([C@]2(O)CC[C@@H](N3CC[C@H](F)C3)CC2)c2ncnn2c1)c1cccc(C(F)(F)F)c1F [Example E71] strictly below 50 nM?
class 0

Take the compound C[C@@H](NC(=O)c1cc(N2CCC(N3CCO[C@@H](CO)C3)CC2)c2ncnn2c1)c1cccc(C(F)F)c1F [Example E15] and say whether its IC50 is less than 50 nM.
class 1

---

Below: a set of entries, each annotated with reported inhibition at 30 min.
Molecular target: CYP3A4 (Homo sapiens (Human), UniProt P08684)
Assay: Mechanism-based inhibition of CYP3A4 assay (MBI 3A4)
Assay type: in vitro ADME
Conditions: human, human liver microsomes, probe midazolam 15 μM (hydroxy-midazolam formation), midazolam substrate, hydroxy-midazolam formation after 30 min preincubation relative to 0 min, read-out: MBI inhibition % ctrl. [%] with MDZ
# number only, unit % dropped from output

Example entries and their recorded answers appear below.
C[C@@H](NC(=O)c1cc(N2CCC(NCC(C)(C)O)CC2)c2ncnn2c1)c1cccc(C(F)(F)F)c1F: 83
C[C@@H](NC(=O)c1cc([C@]2(O)CC[C@@H](N3CC[C@@H](F)C3)CC2)c2ncnn2c1)c1cccc(C(F)F)c1F: 102
C[C@@H](NC(=O)c1cc(N2CCC(NC3CCCC3(C)O)CC2)c2ncnn2c1)c1cccc(C(F)(F)F)c1F (single isomer, unassigned) [Example trans-E53b]: 91
C[C@@H](NC(=O)c1cc([C@H]2CC[C@H](N3CCC(F)C(O)C3)CC2)c2ncnn2c1)c1cccc(C(F)(F)F)c1F (single isomer, unassigned) [Example trans-E70b]: 107
C[C@@H](NC(=O)c1cc(N2CCC(N3C[C@H](O)C4(CC4)C3)CC2)c2ncnn2c1)c1cccc(C(F)F)c1F: 94

Documented inhibition at 30 min of CO[C@H]1CCN(C2CCN(c3cc(C(=O)N[C@H](C)c4cccc(C(F)F)c4F)cn4ncnc34)CC2)C1 : 97

Lab book: inhibition at 30 min of C[C@@H](NC(=O)c1cc(N2CCC3(CCCCN3)CC2)c2ncnn2c1)c1cccc(C(F)F)c1F noted as 102

Entry under test: C[C@@H](NC(=O)c1cc(N2CCC(N3CC[C@@](C)(O)C3)CC2)c2ncnn2c1)c1cccc(C(F)F)c1F . Its inhibition at 30 min was 103

compound Cc1nc2c([C@H]3CC[C@H](N4CCC[C@H](O)C4)CC3)cc(C(=O)N[C@H](C)c3cccc(C(F)F)c3F)cn2n1 , inhibition at 30 min observed: 102

Memo: C[C@@H](NC(=O)c1cc(N2CCC(N3CCC4(CC4)C3)CC2)c2ncnn2c1)c1cccc(C(F)F)c1F , reported inhibition at 30 min: 97

What the record says about Cc1c([C@@H](C)NC(=O)c2cc(N3CCC4(CCCN4C)CC3)c3nnc(C)n3c2)cccc1C(F)(F)F : inhibition at 30 min is 88

// recorded inhibition at 30 min for C[C@@H](NC(=O)c1cc(N2CCC(N3CCC[C@H](O)C3)CC2)c2ncnn2c1)c1cccc(C(F)F)c1F : 99

The recorded inhibition at 30 min for entry C[C@@H](NC(=O)c1cc(N2CCC(N3CCC[C@@H](O)C3)CC2)c2ncnn2c1)c1cccc(C(F)F)c1F equals 100
